Sourced from the NIST ThermoML archive (doi:10.1021/je0500577)

Answer each item with its documented mass density.
conditions: 298.15 K; 101.33 kPa; Liquid
One number for each entry, in kg/m3.

// below: answered compounds
[[record]]
compound = "CC1CCCO1 (stereo unspecified) [2-methyltetrahydrofuran]"
recorded_endpoint = "mass density"
display_unit = "kg/m3"
endpoint_value = 849.4

[[record]]
compound = "ClC1CCCCC1"
recorded_endpoint = "mass density"
display_unit = "kg/m3"
endpoint_value = 993.17

[[record]]
compound = "BrC1CCCCC1"
recorded_endpoint = "mass density"
display_unit = "kg/m3"
endpoint_value = 1328.41

[[record]]
compound = "CC1CCC(C)O1 (stereo unspecified) [2,5-dimethyltetrahydrofuran]"
recorded_endpoint = "mass density"
display_unit = "kg/m3"
endpoint_value = 825.25


Please look at the items below and tell me mass density for each one, in order.
1. C1CCOCC1 [tetrahydropyran]
2. C1CCOC1 [tetrahydrofuran]

# output
1: 878.82; 2: 882.1

* * *

details: 313.15 K, Drop volume
Numbers after ± are expanded uncertainties.
Recorded endpoint: surface tension liquid-gas
Answer format: number, then unit.

[[record]]
compound = "C1CCOCC1 [tetrahydropyran]"
endpoint_value = "25.46 ± 0.23 mN/m"

[[record]]
compound = "ClC1CCCCC1"
endpoint_value = "29.44 ± 0.25 mN/m"

[[record]]
compound = "CC1CCC(C)O1 (stereo unspecified) [2,5-dimethyltetrahydrofuran]"
endpoint_value = "21.5 ± 0.21 mN/m"


Please look at the items below and tell me surface tension liquid-gas for each one, in order.
1. C1CCOC1 [tetrahydrofuran]
2. BrC1CCCCC1
3. CC1CCCO1 (stereo unspecified) [2-methyltetrahydrofuran]

# output
["25.24 ± 0.2 mN/m", "32.98 ± 0.27 mN/m", "23.02 ± 0.21 mN/m"]

* * *

settings: 298.15 K, Drop volume
Recorded endpoint: surface tension liquid-gas (mN/m)
Answers are plain numbers, in mN/m.

// below: answered compounds
[[record]]
compound = "C1CCOC1 [tetrahydrofuran]"
display_unit = "mN/m"
endpoint_value = 27.12

[[record]]
compound = "BrC1CCCCC1 [bromocyclohexane]"
display_unit = "mN/m"
endpoint_value = 33.63

[[record]]
compound = "CC1CCC(C)O1 (stereo unspecified) [2,5-dimethyltetrahydrofuran]"
display_unit = "mN/m"
endpoint_value = 22.93

[[record]]
compound = "CC1CCCO1 (stereo unspecified) [2-methyltetrahydrofuran]"
display_unit = "mN/m"
endpoint_value = 24.56

[[record]]
compound = "C1CCOCC1 [tetrahydropyran]"
display_unit = "mN/m"
endpoint_value = 27.29


Now turn to the next compound.
# input Fill in: surface tension liquid-gas of ClC1CCCCC1 [chlorocyclohexane] is ___
# output 31.05
